# Protocol: NCI Yeast Anticancer Drug Screen. Data for the rad18 strain (AID 177)
# Condition Notes: S. cerevisiae rad18 mutant growth inhibition; at 3.7 µM; active compounds read high
About 79,000 compounds went through this panel and 15% of them were active in at least one assay; those are over-represented in the sample as a whole.
The molecules listed here are annotated with their growth inhibition.
Give just the numeric value; % need not be written.

Smiles Code	growth inhibition [%]
CCN(CC)CCCNc1ccc([N+](=O)[O-])c2nc3ccc(OC)cc3c(NCCCN(CC)CC)c12	0
Cc1ccc(NC(Nc2ccc(C)cc2C)=C(C(Cl)=C(Cl)Cl)[N+](=O)[O-])c(C)c1	7

query: What does the data say about its growth inhibition? Entry: O=C1C(=O)c2cccc([N+](=O)[O-])c2-c2ccccc21
result: 6

----------
# Protocol: NCI Yeast Anticancer Drug Screen. Data for the wt1 strain (AID 149);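 further: 0% = growth of vehicle-treated wt1 cultures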
# Condition Notes: S. cerevisiae wt1 strain (SPY 50644) growth inhibition; at 11.0 µM; active compounds read high
# Method: Growth inhibition of yeast strains with defined genetic alterations is measured as a screen for potential anti-cancer activity. Selected strains with alterations in DNA damage repair or cell cycle control were exposed to compounds and growth inhibition was measured relative to vehicle treated controls. The strain used in this assay is wt1
Compounds without any hit were thinned out: in the full panel of roughly 79,000, 15% have a hit.
The compounds listed here are annotated with their growth inhibition.
Give just the numeric value; % need not be written.

Compound	Result
Cc1ccccc1NC(=O)c1c(C)oc2c1C(=O)c1ccccc1C2=O	-23

query: What does the data say about its growth inhibition? Entry: COc1ccc(C2CC(C)(N3CCCC3)Oc3cc4c(cc32)OCO4)cc1 (stereo unspecified)
result: -5

----------
The molecules listed here are annotated with their growth inhibition.
# Protocol: NCI Yeast Anticancer Drug Screen. Data for the wt2 strain (AID 169);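 further: 0% = growth of vehicle-treated yeast cultures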
# Condition Notes: S. cerevisiae wt2 strain growth inhibition; at 33.0 µM; active compounds read high
This is part of a sample that, as a whole, favours compounds with a hit. Of some 79,000 tested, about 15% had one in any assay.
Give just the numeric value; % need not be written.

query: What does the data say about its growth inhibition? Entry: CCCCOc1ccc2nc(C)cc(N=[N+]=[N-])c2c1
result: 33

query: Next entry: O=C1C(=O)N(c2ccccc2)[C@@]2(c3ccccc3)C(=Nc3ccccc3)OC(c3ccccc3)=C12
result: 93

query: Next entry: ClCCCOc1c(Cl)cc(Cl)cc1Cl
result: -2

----------
# Protocol: NCI Yeast Anticancer Drug Screen. Data for the rad50 strain (AID 155);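 further: 0% = growth of vehicle-only cultures of the same strain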
# Condition Notes: S. cerevisiae rad50 strain growth inhibition; at 33.0 µM
This is part of a sample that, as a whole, favours compounds with a hit. Of some 79,000 tested, about 15% had one in any assay. Active and inactive are the calls of the source. Cut-off read from the data, not from the text of the source: active = growth inhibition above about 70%; inactive = the rest.
One label from this list, please: yes for active, no for inactive

Below are worked cases with known answers.
Smiles Code	Category
CCN(CC)CCC(=O)Nc1ccc2sc3ccccc3c(=O)c2n1	yes
Fc1ccc(Nc2ccc3ccccc3c2)cc1	no

query: Recorded test call requested for CCC(=O)Nc1ccc(N=NN(C)C)cc1
result: no

----------
# Protocol: NCI Yeast Anticancer Drug Screen. Data for the sgs1 strain (AID 173);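 further: 0% = growth of vehicle-only control cultures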
# Condition Notes: S. cerevisiae sgs1 mutant, at 11.0 µM, active compounds read high
About 79,000 compounds went through this panel and 15% of them were active in at least one assay; those are over-represented in the sample as a whole.
The compounds listed here are annotated with their growth inhibition.
Give just the numeric value; % need not be written.

Field: example entries. Status: answers known.
Smiles Code	growth inhibition [%]
O=C1c2ccccc2-c2ccc(N=Cc3ccccc3)cc21	-4
CCCCN(CCC#N)c1ccc(/C=C/c2ccnc3ccccc23)cc1	17
COC(=N)c1ccc(O)c(C)c1	-1
CC(=O)/C=C/c1cccc([N+](=O)[O-])c1	15
CC(C)S(=O)(=O)/C=C\S(=O)(=O)C(C)C	30

query: What does the data say about its growth inhibition? Entry: CN(N=O)C(=O)Nc1ccc(C(=O)O)cc1
result: 20

query: Next entry: O=C(c1cc(=O)c2ccc(O)cc2o1)c1ccc(Cl)cc1Cl
result: 60

Data origin: PubChem BioAssay (NCI)
